biological target: Gonadotropin-releasing hormone receptor (Rattus norvegicus); assay: Antagonist activity at LH-RH receptor in rat pituitary gland assessed as inhibition of LH-RH-induced FSH release
Square brackets hold non-standard residues; d marks the D form. Peptide text beside a SMILES is read from it. pGlu = O=C1CC[C@@H](C(=O)O)N1
EXPERIMENTAL_READOUT: MED (µg/mL)
# output: bare number, implied unit µg/mL

Solved cases below.
>>> obs_value("CC(C)C[C@H](NC(=O)CNC(=O)[C@H](Cc1ccc(O)cc1)NC(=O)[C@H](CO)NC(=O)[C@H](Cc1c[nH]c2ccccc12)NC(=O)[C@@H]1CCC(=O)N1)C(=O)N[C@@H](CCCNC(=N)N)C(=O)N1CCC[C@H]1C(=O)NCC(N)=O ([pGlu]WSYGLRPG-NH2)")
30
>>> obs_value("CC(C)C[C@H](NC(=O)[C@@H](NC(=O)[C@@H]1CCC(=O)N1)C(C)C)C(=O)N[C@@H](CO)C(=O)N[C@@H](Cc1ccc(O)cc1)C(=O)N[C@H](C)C(=O)N[C@@H](CC(C)C)C(=O)N[C@@H](CCCNC(=N)N)C(=O)N1CCC[C@H]1C(=O)NCC(N)=O")
10
>>> obs_value("CC(C)C[C@H](NC(=O)CNC(=O)[C@H](Cc1ccc(O)cc1)NC(=O)[C@H](CO)NC(=O)[C@H](CC(C)C)NC(=O)[C@H](CC(C)C)NC(=O)[C@@H]1CCC(=O)N1)C(=O)N[C@@H](CCCNC(=N)N)C(=O)N1CCC[C@H]1C(=O)NCC(N)=O ([pGlu]LLSYGLRPG-NH2)")
100
>>> obs_value("CC(C)C[C@H](NC(=O)[C@@H]1CCC(=O)N1)C(=O)N[C@@H](CC(C)C)C(=O)N[C@@H](CO)C(=O)N[C@@H](Cc1ccc(O)cc1)C(=O)N[C@H](C)C(=O)N[C@@H](CC(C)C)C(=O)N[C@@H](CCCNC(=N)N)C(=O)N1CCC[C@H]1C(=O)NCC(N)=O")
10
>>> obs_value("CC(C)C[C@H](NC(=O)[C@@H](C)NC(=O)[C@H](Cc1ccc(O)cc1)NC(=O)[C@H](CO)NC(=O)[C@@H](NC(=O)[C@@H](NC(=O)[C@@H]1CCC(=O)N1)C(C)C)C(C)C)C(=O)N[C@@H](CCCNC(=N)N)C(=O)N1CCC[C@H]1C(=O)NCC(N)=O")
100

Let us move to another entry and its MED.
Complete the entry with MED for `CC(C)C[C@H](NC(=O)[C@@H]1CCC(=O)N1)C(=O)N[C@H](C(=O)N[C@@H](CO)C(=O)N[C@@H](Cc1ccc(O)cc1)C(=O)N[C@H](C)C(=O)N[C@@H](CC(C)C)C(=O)N[C@@H](CCCNC(=N)N)C(=O)N1CCC[C@H]1C(=O)NCC(N)=O)C(C)C`
100

====

assay: Retardation factor of the compound using 1-BuOH-AcOH-EtOAc-H2O at ratio of 1:1:1:1 as solvent system by thin layer chromatography; format: physicochemical
EXPERIMENTAL_READOUT: Rf
// keep it numeric: no unit symbol after the value

Solved cases below.
>>> obs_value("CC(C)C[C@H](NC(=O)[C@@H](NC(=O)[C@@H]1CCC(=O)N1)C(C)C)C(=O)N[C@@H](CO)C(=O)N[C@@H](Cc1ccc(O)cc1)C(=O)N[C@H](C)C(=O)N[C@@H](CC(C)C)C(=O)N[C@@H](CCCNC(=N)N)C(=O)N1CCC[C@H]1C(=O)NCC(N)=O")
0.66
>>> obs_value("CC(C)C[C@H](NC(=O)[C@@H]1CCC(=O)N1)C(=O)N[C@@H](CC(C)C)C(=O)N[C@@H](CO)C(=O)N[C@@H](Cc1ccc(O)cc1)C(=O)N[C@H](C)C(=O)N[C@@H](CC(C)C)C(=O)N[C@@H](CCCNC(=N)N)C(=O)N1CCC[C@H]1C(=O)NCC(N)=O")
0.69
>>> obs_value("CC(C)C[C@H](NC(=O)[C@@H](C)NC(=O)[C@H](Cc1ccc(O)cc1)NC(=O)[C@H](CO)NC(=O)[C@@H](NC(=O)[C@@H](NC(=O)[C@@H]1CCC(=O)N1)C(C)C)C(C)C)C(=O)N[C@@H](CCCNC(=N)N)C(=O)N1CCC[C@H]1C(=O)NCC(N)=O")
0.64

Let us move to another entry and its Rf.
Complete the entry with Rf for `CC(C)C[C@H](NC(=O)[C@@H]1CCC(=O)N1)C(=O)N[C@H](C(=O)N[C@@H](CO)C(=O)N[C@@H](Cc1ccc(O)cc1)C(=O)N[C@H](C)C(=O)N[C@@H](CC(C)C)C(=O)N[C@@H](CCCNC(=N)N)C(=O)N1CCC[C@H]1C(=O)NCC(N)=O)C(C)C`
0.66
